meta.source: ChEMBL document CHEMBL1201862

test system: UACC-257; test: NCI tumour cell line growth inhibition, 48 h
Activity calls are given as the source filed them. Rule as the data show it: active = GI50 up to about 1.1 µM and inactive = higher.
Observable: GI50

Worked examples, 5 compounds total:
>>> print(df.to_string())
                                   compound  measured_target               result
0  CCCC(=O)OCC1OC(n2cc(F)c(=O)[nH]c2=O)CC1O (stereo not given)         UACC-257    4.1 µM (inactive)
1  COc1cccc(C2c3cc4c(cc3OC(N3CCCC3)C2c2ccccc2)OCO4)c1O (stereo not given)         UACC-257   11.4 µM (inactive)
2  COc1ccccc1/N=N/c1c(-c2ccccc2)nn(C(=O)CC(=O)Nc2cccc(C)c2)c1-c1ccccc1         UACC-257   27.3 µM (inactive)
3  O=C(O)C(Cc1ccc(O)c([N+](=O)[O-])c1)N1C(=O)c2ccccc2C1=O (stereo not given)         UACC-257  > 100 µM (inactive)
4  Cc1ccc2c(c1)C(C1Cc3cccc(C)c3C1=O)OC2=O (stereo not given)         UACC-257  > 100 µM (inactive)

GI50 measured on CC(C)(C)C(=O)/C=C(\OB(F)F)C(C)(C)C = > 100 µM (inactive)

GI50 measured on c1csc(-c2nccc3c2[nH]c2ccccc23)c1 = 21.2 µM (inactive)

GI50 measured on COc1cc(/C=c2\sc3n(c2=O)C(c2ccc(Cl)cc2)C2=C(CCCC2C)N=3)cc(OC)c1OC (stereo not given) = > 100 µM (inactive)

GI50 measured on CCC(=O)NC(Nc1ccc(O)cc1)(C(F)(F)F)C(F)(F)F = 37.4 µM (inactive)

GI50 measured on COc1ccc(/C=N/N=C(\N)NO)c(Cl)c1O = 20.2 µM (inactive)
